measuredOn: HIV-1 protease (Human immunodeficiency virus type 1 group M subtype B)
Construct: 2.6 nM of HIV-1 protease
assayProtocol: Assay for inhibitory effect on HIV protease (residual enzyme activity, HPLC of substrate cleavage)
Type: biochemical
experimentalSetup: HIV-1 protease 2.6 nM, pH 5.5; rate constant of covalent bond formation; read-out: kina (converted)
Method: The inhibitory effect on HIV protease of the compounds of the present invention was determined by the following method. […] The inhibition constant was calculated according to the following equation: [formula] wherein: kobs is a rate constant indicating the rate of reduction in enzyme activity according to the elapsed time under the presence of a given concentration of inhibitor, […]
quantity: kinact (s⁻¹)
Give bare numbers, in s⁻¹.

substanceSmiles | unitsOfMeasure | measuredValue
NC(=O)C[C@H](NC(=O)OCc1ccccc1)C(=O)N[C@@H](Cc1ccccc1)[C@H]1O[C@H]1CCc1ccccc1 | s⁻¹ | 0.0005
NC(=O)C[C@H](NC(=O)COc1ccccc1)C(=O)N[C@@H](Cc1ccccc1)[C@H]1O[C@H]1CCc1ccccc1 | s⁻¹ | 0.0015
CC(C)[C@H](NC(=O)OCc1ccccc1)C(=O)N[C@@H](Cc1ccccc1)[C@H]1O[C@H]1CCc1ccccc1 | s⁻¹ | 0.0015
CC(C)C(NC(=O)C[C@@H]1O[C@@H]1[C@H](Cc1ccccc1)NC(=O)[C@H](CC(N)=O)NC(=O)c1ccc2ccccc2n1)C(C)C | s⁻¹ | 0.00267

Below is a list of compounds. For each, state its recorded kinact.
1. CC(C)[C@@H](NC(=O)C[C@@H]1O[C@@H]1[C@H](Cc1ccccc1)NC(=O)[C@H](CC(N)=O)NC(=O)c1ccc2ccccc2n1)c1ccccc1
2. CC(C)[C@@H](CCc1ccccc1)NC(=O)C[C@@H]1O[C@@H]1[C@H](Cc1ccccc1)NC(=O)[C@H](CC(N)=O)NC(=O)c1ccc2ccccc2n1
3. CC(C)[C@H](NC(=O)OCc1ccccn1)C(=O)NC[C@@H]1O[C@@H]1[C@H](Cc1ccccc1)NC(=O)[C@@H](NC(=O)OCc1ccccn1)C(C)C
4. CC(C)C[C@H](NC(=O)[C@H](CC(N)=O)NC(=O)OCc1ccccc1)[C@H]1O[C@H]1CCc1ccccc1
5. NC(=O)C[C@H](NC(=O)c1ccc2ccccc2n1)C(=O)NC[C@@H]1O[C@@H]1[C@H](Cc1ccccc1)NC(=O)[C@H](CC(N)=O)NC(=O)c1ccc2ccccc2n1
6. NC(=O)C[C@H](NC(=O)c1ccc2ccccc2n1)C(=O)N[C@@H](Cc1ccccc1)[C@H]1O[C@H]1CNC(=O)[C@@H](NC=O)c1ccccc1

1. 0.0283
2. 0.03
3. 0.004
4. 0.00483
5. 0.00333
6. 0.005

// data source = patent US5744621A
